test: Pharmacokinetic study in rats; format: in vivo; settings: male SD rats, p.o. 10 mg/kg, whole blood
Reported Cmax values follow for various compounds
measure: Cmax (nM)

>  <compound>
CCn1c(-c2cc(N3CCN(C)CC3)cnc2C(C)OC)c2c3cc(ccc31)-c1csc(n1)CC(NC(=O)C1C(C)C1C)C(=O)N1NC(C(=O)OCC(C)(C)C2)C2CC1C2 (single isomer, unassigned) [Compound 6A]

>  <observed_value>
1620

$$$$
>  <compound>
CCn1c(-c2cc(N3CCN(C)CC3)cnc2C(C)OC)c2c3cc(ccc31)-c1csc(n1)CC(NC(=O)C1CC1C)C(=O)N1NC(C(=O)OCC(C)(C)C2)C2CC1C2 (single isomer, unassigned) [Compound 7A]

>  <observed_value>
1460

$$$$

* * *

experiment: Pharmacokinetic study in Beagle dogs; format: in vivo; settings: male Beagle dogs, p.o. 5 mg/kg, whole blood
measure: Cmax (nM)

>  <compound>
CCn1c(-c2cc(N3CCN(C)CC3)cnc2C(C)OC)c2c3cc(ccc31)-c1csc(n1)CC(NC(=O)C1CC1C)C(=O)N1NC(C(=O)OCC(C)(C)C2)C2CC1C2 (single isomer, unassigned)

>  <unit_annotation>
nM

>  <observed_value>
618

$$$$
>  <compound>
CCn1c(-c2cc(N3CCN(C)CC3)cnc2C(C)OC)c2c3cc(ccc31)-c1csc(n1)CC(NC(=O)C1C(C)C1C)C(=O)N1NC(C(=O)OCC(C)(C)C2)C2CC1C2 (single isomer, unassigned)

>  <unit_annotation>
nM

>  <observed_value>
472

$$$$
